# TARGET_OF_ASSAY: hTRα (Homo sapiens)
# PROTOCOL_DESCRIPTION: TRα SPA ligand competition binding assay
pIC50: −log10 of the molar value.
ASSAY_READOUT: pIC50

1) O=C(O)c1cc(I)c(Oc2ccc(O)c(I)c2)c(I)c1    4.92

###

# TARGET_OF_ASSAY: hTRβ (Homo sapiens, UniProt P10828)
# Sequence (P10828 217-461 limits assumed): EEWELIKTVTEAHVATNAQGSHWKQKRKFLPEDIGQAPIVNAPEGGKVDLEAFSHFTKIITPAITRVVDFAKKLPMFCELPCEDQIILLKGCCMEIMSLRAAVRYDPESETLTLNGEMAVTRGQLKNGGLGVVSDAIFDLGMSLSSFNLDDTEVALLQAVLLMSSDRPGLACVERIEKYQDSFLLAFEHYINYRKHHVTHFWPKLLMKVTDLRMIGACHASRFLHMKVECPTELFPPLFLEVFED
# PROTOCOL_DESCRIPTION: TRβ SPA ligand competition binding assay
ASSAY_READOUT: IC50 (µM)

1) O=C(O)c1cc(I)c(Oc2ccc(O)c(I)c2)c(I)c1    10

###

# TARGET_OF_ASSAY: hTRβ (Homo sapiens)
# PROTOCOL_DESCRIPTION: TRβ SPA ligand competition binding assay
# TEST_CONTEXT: read-out: IC50 TRβ; SPA competition, 1 nM [125I]-T3
ASSAY_READOUT: IC50 (µM)

1. O=C(O)Cc1cc(I)c(Oc2cc(I)c(O)c(I)c2)c(I)c1 [T4Ac, 3,3’,5,5’-tetraiodothyroacetic acid]    5

###

# TARGET_OF_ASSAY: AR-LBD (androgen receptor) (Pan troglodytes, UniProt O97775)
# Sequence (O97775 655-911 limits assumed): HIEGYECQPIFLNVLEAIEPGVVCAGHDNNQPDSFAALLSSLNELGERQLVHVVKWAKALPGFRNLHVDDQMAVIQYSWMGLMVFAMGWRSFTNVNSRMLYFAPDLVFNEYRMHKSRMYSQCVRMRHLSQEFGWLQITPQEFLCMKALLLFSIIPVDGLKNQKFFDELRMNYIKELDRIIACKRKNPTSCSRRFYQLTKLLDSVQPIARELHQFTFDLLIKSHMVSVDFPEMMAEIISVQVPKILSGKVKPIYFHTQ
# PROTOCOL_DESCRIPTION: AR SPA ligand competition binding assay
# TEST_CONTEXT: IC50 AR
pIC50: −log10 of the molar value.
ASSAY_READOUT: pIC50

1) C[C@]1(O)CC[C@H]2[C@@H]3CCC4=CC(=O)CCC4=C3C=C[C@@]21C [Methyltrienolone (R1881), Methyltrienolone]    6.96

###

# TARGET_OF_ASSAY: hTRα (Homo sapiens, UniProt P10827)
# Sequence (P10827 148-410 isoform P10827-2 limits assumed): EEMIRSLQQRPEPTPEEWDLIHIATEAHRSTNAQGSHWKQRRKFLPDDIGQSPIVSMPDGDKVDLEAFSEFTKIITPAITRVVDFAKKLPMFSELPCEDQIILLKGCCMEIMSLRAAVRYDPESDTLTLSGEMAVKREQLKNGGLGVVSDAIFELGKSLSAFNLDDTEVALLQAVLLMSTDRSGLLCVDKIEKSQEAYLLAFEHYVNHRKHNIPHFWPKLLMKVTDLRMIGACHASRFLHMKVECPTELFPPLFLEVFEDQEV
# PROTOCOL_DESCRIPTION: TRα SPA ligand competition binding assay
# TEST_CONTEXT: read-out: IC50 TRα; SPA competition, 1 nM [125I]-T3
pIC50: −log10 of the molar value.
ASSAY_READOUT: pIC50

1. O=C(O)Cc1cc(I)c(Oc2cc(I)c(O)c(I)c2)c(I)c1    5.00
